// provenance: ChEMBL document CHEMBL1687841

Tested on: Neisseria gonorrhoeae
assay_text: Antimicrobial activity against Neisseria gonorrhoeae clinical isolates assessed as percent resistant isolates after 24 hrs by agar dilution method
Format: functional
Assignment: determine reported Activity for the given compounds.

Q: Note down Activity recorded for CO/N=C(\C(=O)N[C@@H]1C(=O)N2C(C(=O)O)=C(CSc3nc(=O)c(O)nn3C)CS[C@H]12)c1csc(N)n1
Result: 0%

Q: Note down Activity recorded for CC[C@H]1OC(=O)[C@H](C)[C@@H](O[C@H]2C[C@@](C)(OC)[C@@H](O)[C@H](C)O2)[C@H](C)[C@@H](O[C@@H]2O[C@H](C)C[C@H](N(C)C)[C@H]2O)[C@](C)(O)C[C@@H](C)C(=O)[C@H](C)[C@@H](O)[C@]1(C)O
Result: 22.8%

Q: Note down Activity recorded for CC1(C)S[C@@H]2[C@H](NC(=O)Cc3ccccc3)C(=O)N2[C@H]1C(=O)O
Result: 12.1%

Q: Note down Activity recorded for CN(C)[C@@H]1C(O)=C(C(N)=O)C(=O)[C@@]2(O)C(O)=C3C(=O)c4c(O)cccc4[C@@](C)(O)[C@H]3C[C@@H]12
Result: 25.5%

Q: Note down Activity recorded for C=CC1=C(C(=O)O)N2C(=O)[C@@H](NC(=O)/C(=N\OCC(=O)O)c3csc(N)n3)[C@H]2SC1
Result: 0%

Q: Note down Activity recorded for CN[C@@H]1[C@H](O)[C@H](NC)[C@H]2O[C@@]3(O)C(=O)C[C@@H](C)O[C@H]3O[C@@H]2[C@H]1O
Result: 0%
